- measured_target: Mtb Pks13-TE domain (wild-type) (Mycobacterium tuberculosis, UniProt I6X8D2)
- Sequence (I6X8D2 1451-1733): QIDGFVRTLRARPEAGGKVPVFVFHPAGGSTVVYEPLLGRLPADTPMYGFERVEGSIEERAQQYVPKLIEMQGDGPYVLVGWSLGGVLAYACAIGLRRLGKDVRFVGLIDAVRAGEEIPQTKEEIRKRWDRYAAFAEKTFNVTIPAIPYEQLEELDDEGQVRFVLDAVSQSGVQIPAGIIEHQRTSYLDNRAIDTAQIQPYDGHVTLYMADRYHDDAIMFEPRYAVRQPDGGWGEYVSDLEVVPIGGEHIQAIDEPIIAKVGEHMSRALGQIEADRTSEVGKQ
- protocol_details: biochemical
- Type: biochemical
- condition_description: Pks13-TE, 20 μM 4-MUH; read-out: IC50
reported_metric: pIC50
One number for each entry, as −log10 of the molar value.

Below, each entry is followed by its recorded pIC50 result.
1) CCOC(=O)c1c(-c2ccccc2)oc2ccc(O)c(Cc3ccccc3)c12 [compound 10] = 4.92
2) CCOC(=O)c1c(-c2ccccc2)oc2ccc(O)c(CN3CCCCCC3)c12 [compound 4] = 6.55
3) O=C(c1c(-c2ccccc2)oc2ccc(O)c(CN3CCCCC3)c12)N1CCCCC1 [compound 43] = 6.49
4) CCOC(=O)c1c(-c2ccc(O)c(F)c2)oc2ccc(O)c(CN3CCCCC3)c12 [compound 59] = 6.54
5) CCOC(=O)c1c(-c2ccc(F)cc2)oc2cc(O)cc(CCNC(C)CO)c12 (stereo not drawn) [compound 77] = 5.22
6) CCOC(=O)c1c(-c2ccc(F)cc2)oc2ccc(O)c(CN3CCCCC3)c12 [compound 25] = 6.46

Hey, can you go through the list below and give me pIC50 for every item?
1. Oc1ccc2nc(-c3ccccc3)[nH]c2c1CN1CCCC1 [compound 110]
2. CCOC(=O)c1c(-c2ccccc2)oc2ccc(O)c(CN3CCCC3)c12 [compound 3]
3. CNC(=O)c1c(-c2ccc(O)cc2)oc2ccc(O)c(CN3CCC(CO)CC3)c12 [compound 121]
4. CCOC(=O)c1c(-c2ccc(C#N)cc2)oc2ccc(O)c(CN3CCCCC3)c12 [compound 62]
5. NC1CCN(C(=O)c2c(-c3ccccc3)oc3ccc(O)c(CN4CCCCC4)c23)CC1 [compound 54]
6. CCOC(=O)c1c(-c2ccccc2)oc2cc(N)cc(CN3CCCCC3)c12 [compound 34]
7. CNC(=O)c1c(-c2ccc(O)cc2)oc2ccc(O)c(CN3CCCC(CO)C3)c12 (stereo not drawn) [compound 127]
8. CCOC(=O)c1c(-c2ccccc2)oc2ccc(O)c(CCCN3CC[C@H](O)C3)c12 [compound 186]

Response given:
1. 5.17
2. 6.62
3. 6.22
4. 6.57
5. 5.28
6. 5.35
7. 5.96
8. 6.21

Hey, can you go through the list below and give me pIC50 for every item?
1. CNC(=O)c1c(-c2ccccc2)oc2ccc(OC)c(C(O)c3ccccc3)c12 (stereo not drawn) [compound 20]
2. O=C(c1c(-c2ccccc2)oc2ccc(O)c(CN3CCCCC3)c12)N1CCCCC1 [compound 42]

Response given:
1. 4.30
2. 6.13

====

- Tested on: Mtb strain mc^27000
- protocol_details: microbe, parasite or virus in culture
- Format: cell-based, Mycobacterium tuberculosis
- condition_description: Mycobacterium tuberculosis, Mtb mc^27000, liquid medium, 96-well plates; read-out: MIC
reported_metric: MIC (µM)
One number for each entry, in µM.

Below, each entry is followed by its recorded MIC result.
1) CCOC(=O)c1c(-c2ccccc2)oc2ccc(O)c(CCCN3CC[C@@H](O)C3)c12 [compound 175] = 6.1
2) CCOC(=O)c1c(-c2ccccc2)oc2ccc(O)c(CCCN3CCSC3C)c12 (centres unmarked) [compound 174] = 4.7
3) CCOC(=O)c1c(-c2ccccc2)oc2ccc(OC)c(Cc3ccccc3)c12 [compound 19] = 50
4) CCOC(=O)c1c(-c2ccccc2)oc2cc(CN3CCCCC3)cc(O)c12 [compound 36] = 40
5) CNC(=O)c1c(-c2ccnc(OC)c2)oc2cc(O)cc(CN3CCCCC3)c12 [compound 87] = 3.3
6) CCOC(=O)c1c(-c2cccc(OC)c2)oc2ccc(O)c(CN3CCCCC3)c12 [compound 48] = 1.3
7) CNC(=O)c1c(-c2ccccc2)oc2ccc(O)c(CCN3CC[C@H](Br)C3)c12 [compound 231] = 8
8) CCOC(=O)c1c(-c2ccc(F)cc2)oc2cc(O)cc(CCNC(C)CO)c12 (centres unmarked) [compound 77] = 3.3
9) CCOC(=O)c1c(-c2ccccc2)oc2cc(N)cc(CN3CCCCC3)c12 [compound 34] = 9.2
10) CCOC(=O)c1c(-c2ccc(OC)cc2)oc2ccc(O)c(CN3CCCCC3)c12 [compound 21] = 2.6

Hey, can you go through the list below and give me MIC for every item?
1. CNC(=O)c1c(-c2ccc(O)c(F)c2)oc2ccc(O)c(CN3CCCCC3)c12 [compound 61]
2. CNC(=O)c1c(-c2ccccc2)oc2ccc(O)c(CCN3CCCC3)c12 [compound 101]
3. COC(=O)c1c(-c2ccccc2)oc2cc(O)cc(CNC(C)C)c12 [compound 67]

Response given:
1. 0.5
2. 3.3
3. 9

The reported MIC of the compound CCOC(=O)c1c(-c2ccccc2)oc2ccc(O)c(CN3CCC(C)CC3)c12 [compound 1] was 2.3
